# Target or test system: human carbonic anhydrase 9 (CAIX) (human, UniProt Q16790 38-459)
# Test summary: FACS competition on HT-29 cells, competitor tracer 3BP-2776; category C = pIC50 6.1-7.0
Starred links: 1 amine or outer side, 2 acyl side, 3 side chain; linkers in the order of their positions; H or OH if unused. Positions of bridges follow the written chain, without caps; N, C: chain ends. Non-standard residues stand in square brackets, D forms with d. Primed or numbered codes have the meaning given here. *: point of attachment. Aph(Bz) = 4-aminophenylalanine with benzoyl on the ring amine, O=C(Nc1ccc(C[C@H](N[*:1])C(=O)[*:2])cc1)c1ccccc1; APAc″ = 2-(4-(amino)piperidin-1-yl)acetic acid, NC1CCN(CC(=O)*)CC1; DOTA = O=C(O)CN1CCN(CC(=O)O)CCN(CC(=O)*)CCN(CC(=O)O)CC1; mXylylene = c1cc(C[*:1])cc(C[*:2])c1
Endpoint label: pIC50

[[record]]
binder = "{DOTA-APAc″}-VYCE[dP]D[Aph(Bz)]LTWSC-NH2 (linker 3-12 via mXylylene) [3BP-4171]"
measured = "6.1 to 7 pic50"

[[record]]
binder = "Ac-VYCE[dP]DWLKWSC-NH2 (linker 3-12 via mXylylene; lactam 4-9; SMILES CC(=O)N[C@H](C(=O)N[C@@H](Cc1ccc(O)cc1)C(=O)N[C@H]1CSCc2cccc(c2)CSC[C@@H](C(N)=O)NC(=O)[C@H](CO)NC(=O)[C@H](Cc2c[nH]c3ccccc23)NC(=O)[C@@H]2CCCCNC(=O)CC[C@H](NC1=O)C(=O)N1CCC[C@@H]1C(=O)N[C@@H](CC(=O)O)C(=O)N[C@@H](Cc1c[nH]c3ccccc13)C(=O)N[C@@H](CC(C)C)C(=O)N2)C(C)C) [3BP-3899]"
measured = "6.1 to 7 pic50"

